Please provide measured EC50 for the entries that follow.
- target.or.system: UniProt Q15077
- Sequence (Q15077 whole entry): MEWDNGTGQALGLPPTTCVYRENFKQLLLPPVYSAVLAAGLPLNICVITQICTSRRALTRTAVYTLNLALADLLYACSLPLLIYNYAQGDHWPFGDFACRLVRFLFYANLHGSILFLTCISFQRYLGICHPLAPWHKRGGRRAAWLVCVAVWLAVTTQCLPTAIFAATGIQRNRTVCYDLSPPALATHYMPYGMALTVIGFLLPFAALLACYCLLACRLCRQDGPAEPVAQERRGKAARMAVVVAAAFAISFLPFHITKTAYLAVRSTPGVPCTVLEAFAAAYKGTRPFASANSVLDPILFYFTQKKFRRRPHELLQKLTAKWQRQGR
- assay.info: inositol phosphate assay, P2Y6 receptor activity
Numbers only; they are read as nM.

Ask: Please provide the recorded EC50 for O=c1[nH]c(=S)ccn1[C@@H]1O[C@H](COP(=O)(O)OP(=O)(O)OP(=O)(O)OP(=O)(O)OC[C@H]2O[C@@H](n3ccc(=S)[nH]c3=O)[C@H](O)[C@@H]2O)[C@@H](O)[C@H]1O [Example 4] , tested on UniProt Q15077.
Reply: 50

Ask: Follow-up item: O=c1ccn([C@@H]2O[C@H](COP(=O)(O)OP(=O)(O)OP(=O)(O)OP(=O)(O)OC[C@H]3O[C@@H](n4cnc5c(=O)[nH]cnc54)[C@H](O)[C@@H]3O)[C@@H](O)[C@H]2O)c(=O)[nH]1 [Example 8]
Reply: 800

====

- target.or.system: P2Y4 receptor (Homo sapiens, UniProt P51582)
- Sequence (P51582 whole entry): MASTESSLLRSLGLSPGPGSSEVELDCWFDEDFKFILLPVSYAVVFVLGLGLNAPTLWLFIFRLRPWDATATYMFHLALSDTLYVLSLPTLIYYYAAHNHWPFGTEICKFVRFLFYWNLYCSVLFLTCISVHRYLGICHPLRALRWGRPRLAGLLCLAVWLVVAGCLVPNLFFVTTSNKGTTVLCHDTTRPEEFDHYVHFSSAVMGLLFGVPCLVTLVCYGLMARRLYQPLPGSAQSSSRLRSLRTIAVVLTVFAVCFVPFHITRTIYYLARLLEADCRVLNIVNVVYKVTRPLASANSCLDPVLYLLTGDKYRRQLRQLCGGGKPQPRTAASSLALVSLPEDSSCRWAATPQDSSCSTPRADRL
- assay.info: inositol phosphate assay, P2Y4 receptor activity
pEC50: −log10 of the molar value.
Use class 1 when the recorded pEC50 is no lower than 6; use class 0 when it is lower.

Ask: Please check the record O=c1ccn([C@@H]2O[C@H](COP(=O)(O)OP(=O)(O)OP(=O)(O)OP(=O)(O)OP(=O)(O)OC[C@H]3O[C@@H](n4ccc(=O)[nH]c4=O)[C@H](O)[C@@H]3O)[C@@H](O)[C@H]2O)c(=O)[nH]1 [Example 5, P^1,P^5-Di(uridine 5′-pentaphosphate)] and state if its pEC50 is at or above 6.
Reply: class 0

Ask: Again, but for O=c1n([C@@H]2O[C@H](COP(=O)(O)OP(=O)(O)OP(=O)(O)OP(=O)(O)OC[C@H]3O[C@@H](n4ccc5nc(-c6cccc([N+](=O)[O-])c6)cn5c4=O)[C@H](O)[C@@H]3O)[C@@H](O)[C@H]2O)ccc2nc(-c3cccc([N+](=O)[O-])c3)cn12 [Example 6a]
Reply: class 1

Ask: Field entry: Cc1cn([C@H]2C[C@H](O)[C@@H](COP(=O)(O)OP(=O)(O)OP(=O)(O)OP(=O)(O)OC[C@H]3O[C@@H](n4ccc(=O)[nH]c4=O)[C@H](O)[C@@H]3O)O2)c(=O)[nH]c1=O [Example 7]
Reply: class 1

Ask: Further, for O=c1ccn([C@@H]2O[C@H](COP(=O)(O)OP(=O)(O)OP(=O)(O)OP(=O)(O)OC[C@H]3O[C@@H](n4ccc(=O)[nH]c4=O)C[C@@H]3O)[C@@H](O)[C@H]2O)c(=O)[nH]1 [Example 12] ?
Reply: class 1

Ask: Now this one: O=c1ccn([C@@H]2O[C@H](COP(=O)(O)OP(=O)(O)CP(=O)(O)OP(=O)(O)OC[C@H]3O[C@@H](n4ccc(=O)[nH]c4=O)[C@H](O)[C@@H]3O)[C@@H](O)[C@H]2O)c(=O)[nH]1 [Example 1]
Reply: class 0

Ask: Same again, this time with Cc1cn([C@H]2C[C@H](N=[N+]=[N-])[C@@H](COP(=O)(O)OP(=O)(O)OP(=O)(O)OP(=O)(O)OC[C@H]3O[C@@H](n4ccc(=O)[nH]c4=O)[C@H](O)[C@@H]3O)O2)c(=O)[nH]c1=O [Example 13]
Reply: class 1

Ask: Moving on to the next compound: O=c1ccn([C@@H]2O[C@H](COP(=O)(O)OP(=O)(O)OP(=O)(O)OP(=O)(O)OC[C@H]3O[C@@H](n4cnc5c(=O)[nH]c(=O)[nH]c54)[C@H](O)[C@@H]3O)[C@@H](O)[C@H]2O)c(=O)[nH]1 [Example 11]
Reply: class 1

====

- target.or.system: P2Y2 receptor (Homo sapiens)
- Sequence (P41231 whole entry): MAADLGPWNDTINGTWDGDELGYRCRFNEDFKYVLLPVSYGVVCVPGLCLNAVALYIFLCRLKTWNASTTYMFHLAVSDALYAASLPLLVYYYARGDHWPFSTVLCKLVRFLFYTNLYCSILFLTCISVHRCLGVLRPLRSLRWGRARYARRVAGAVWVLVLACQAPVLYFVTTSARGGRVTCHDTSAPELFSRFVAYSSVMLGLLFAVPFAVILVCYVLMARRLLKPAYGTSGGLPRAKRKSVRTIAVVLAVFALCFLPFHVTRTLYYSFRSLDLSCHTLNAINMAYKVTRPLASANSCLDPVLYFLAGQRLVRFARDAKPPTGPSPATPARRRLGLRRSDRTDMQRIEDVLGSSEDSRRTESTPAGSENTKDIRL
- assay.info: inositol phosphate assay, P2Y2 receptor activity
quantity.measured: pEC50
Reminder that pEC50 means the negative base-10 logarithm of the concentration expressed in mol/L.

Ask: What does the record list as pEC50 for O=c1[nH]c(=S)ccn1[C@@H]1O[C@H](COP(=O)(O)OP(=O)(O)OP(=O)(O)OP(=O)(O)OC[C@H]2O[C@@H](n3ccc(=S)[nH]c3=O)[C@H](O)[C@@H]2O)[C@@H](O)[C@H]1O ?
Reply: 7.70

Ask: Consider next the compound O=c1n([C@@H]2O[C@H](COP(=O)(O)OP(=O)(O)OP(=O)(O)OP(=O)(O)OC[C@H]3O[C@@H](n4ccc5nccn5c4=O)[C@H](O)[C@@H]3O)[C@@H](O)[C@H]2O)ccc2nccn12 in the same way.
Reply: 6.34

Ask: Then O=c1ccn([C@@H]2O[C@H](COP(=O)(O)OP(=O)(O)OP(=O)(O)OP(=O)(O)OC[C@H]3O[C@@H](n4cnc5c(=O)[nH]cnc54)[C@H](O)[C@@H]3O)[C@@H](O)[C@H]2O)c(=O)[nH]1 ?
Reply: 6.96

====

- target.or.system: P2Y2 receptor (Homo sapiens)
- assay.info: inositol phosphate assay, P2Y2 receptor activity
pEC50: −log10 of the molar value.
Outcome label depends on pEC50 relative to 6: at/above gives class 1, below gives class 0.

Ask: Is pEC50 for O=c1ccn([C@@H]2O[C@H](COP(=O)(O)OP(=O)(O)CP(=O)(O)OP(=O)(O)OC[C@H]3O[C@@H](n4ccc(=O)[nH]c4=O)[C@H](O)[C@@H]3O)[C@@H](O)[C@H]2O)c(=O)[nH]1 at or above 6?
Reply: class 0

Ask: Cool, now Nc1ccn([C@@H]2O[C@H](COP(=O)(O)OP(=O)(O)OP(=O)(O)OP(=O)(O)OC[C@H]3O[C@@H](n4ccc(=O)[nH]c4=O)[C@H](O)[C@@H]3O)[C@@H](O)[C@@H]2O)c(=O)n1
Reply: class 1

Ask: Would you kindly repeat that for O=c1ccn([C@@H]2O[C@H](COP(=O)(O)OP(=O)(O)OP(=O)(O)OP(=O)(O)OC[C@H]3O[C@@H](n4ccc(=O)[nH]c4=O)C[C@@H]3O)[C@@H](O)[C@H]2O)c(=O)[nH]1 ?
Reply: class 1

Ask: Follow-up item: O=c1ccn([C@@H]2O[C@H](COP(=O)(O)OP(=O)(O)OP(=O)(O)OP(=O)(O)OP(=O)(O)OC[C@H]3O[C@@H](n4ccc(=O)[nH]c4=O)[C@H](O)[C@@H]3O)[C@@H](O)[C@H]2O)c(=O)[nH]1 [Example 5, P^1,P^5-Di(uridine 5′-pentaphosphate)]
Reply: class 0

Ask: And then O=c1ccn([C@@H]2O[C@H](COP(=O)(O)OP(=O)(O)NP(=O)(O)OP(=O)(O)OC[C@H]3O[C@@H](n4ccc(=O)[nH]c4=O)[C@H](O)[C@@H]3O)[C@@H](O)[C@H]2O)c(=O)[nH]1 , what is it?
Reply: class 1

Ask: Follow-up item: Cc1cn([C@H]2C[C@H](N=[N+]=[N-])[C@@H](COP(=O)(O)OP(=O)(O)OP(=O)(O)OP(=O)(O)OC[C@H]3O[C@@H](n4ccc(=O)[nH]c4=O)[C@H](O)[C@@H]3O)O2)c(=O)[nH]c1=O
Reply: class 1

Ask: Same for O=c1ccn([C@@H]2O[C@H](COP(=O)(O)OP(=O)(O)C(F)(F)P(=O)(O)OP(=O)(O)OC[C@H]3O[C@@H](n4ccc(=O)[nH]c4=O)[C@H](O)[C@@H]3O)[C@@H](O)[C@H]2O)c(=O)[nH]1
Reply: class 0

Ask: Subsequent entry: O=c1ccn([C@@H]2O[C@H](COP(=O)(O)OP(=O)(O)OP(=O)(O)OP(=O)(O)OC[C@H]3O[C@@H](n4ccc(=S)[nH]c4=O)[C@H](O)[C@@H]3O)[C@@H](O)[C@H]2O)c(=O)[nH]1
Reply: class 1

Ask: Try O=c1ccn([C@@H]2O[C@H](COP(=O)(O)OP(=O)(O)OP(=O)(O)OP(=O)(O)OC[C@H]3O[C@@H](n4cnc5c(=O)[nH]c(=O)[nH]c54)[C@H](O)[C@@H]3O)[C@@H](O)[C@H]2O)c(=O)[nH]1 next.
Reply: class 1

Ask: Repeat with Cc1cn([C@H]2C[C@H](O)[C@@H](COP(=O)(O)OP(=O)(O)OP(=O)(O)OP(=O)(O)OC[C@H]3O[C@@H](n4ccc(=O)[nH]c4=O)[C@H](O)[C@@H]3O)O2)c(=O)[nH]c1=O
Reply: class 1

Ask: Same again, this time with O=c1n([C@@H]2O[C@H](COP(=O)(O)OP(=O)(O)OP(=O)(O)OP(=O)(O)OC[C@H]3O[C@@H](n4ccc5nc(-c6cccc([N+](=O)[O-])c6)cn5c4=O)[C@H](O)[C@@H]3O)[C@@H](O)[C@H]2O)ccc2nc(-c3cccc([N+](=O)[O-])c3)cn12
Reply: class 1

====

Would you mind telling me the reported pEC50 of each entry?
- target.or.system: P2Y4 receptor (Homo sapiens)
- assay.info: inositol phosphate assay, P2Y4 receptor activity
On this scale, pEC50 is minus log10 of a concentration expressed in M (mol/L).

Ask: # lookup: pEC50 of Nc1ccn([C@@H]2O[C@H](COP(=O)(O)OP(=O)(O)OP(=O)(O)OP(=O)(O)OC[C@H]3O[C@@H](n4ccc(=O)[nH]c4=O)[C@H](O)[C@@H]3O)[C@@H](O)[C@@H]2O)c(=O)n1
Reply: 6.49

Ask: Please do the same for O=c1ccn([C@@H]2O[C@H](COP(=O)(O)OP(=O)(O)OP(=O)(O)OP(=O)(O)OC[C@H]3O[C@@H](n4cnc5c(=O)[nH]cnc54)[C@H](O)[C@@H]3O)[C@@H](O)[C@H]2O)c(=O)[nH]1 as well.
Reply: 6.82

Ask: And then O=c1ccn([C@@H]2O[C@H](COP(=O)(O)OP(=O)(O)OP(=O)(O)OP(=O)(O)OC[C@H]3O[C@@H](n4ccc(=S)[nH]c4=O)[C@H](O)[C@@H]3O)[C@@H](O)[C@H]2O)c(=O)[nH]1 , what is it?
Reply: 5.38

Ask: Continue with O=c1n([C@@H]2O[C@H](COP(=O)(O)OP(=O)(O)OP(=O)(O)OP(=O)(O)OC[C@H]3O[C@@H](n4ccc5nccn5c4=O)[C@H](O)[C@@H]3O)[C@@H](O)[C@H]2O)ccc2nccn12
Reply: 4.70
